So I've got a bunch of compounds here, and I need their MIC values.
tested on: Pseudomonas aeruginosa; test: Antibacterial activity against Pseudomonas aeruginosa assessed as reduction in microbial growth by two fold microdilution method; type: functional
One number for each entry, in µg/mL.

{"columns": ["Chem Smiles", "MIC [µg/mL]"],
 "data": [
  ["O=C(CN1CCN(c2cc3c(cc2F)c(=O)c(C(=O)O)cn3C2CC2)CC1)c1nccs1", 1],
  ["COC(=O)CO/N=C(\\CN1CCN(c2c(F)cc3c(=O)c(C(=O)O)cn(C4CC4)c3c2Cl)CC1)c1nccs1", 0.25],
  ["CCO/N=C(\\CN1CCN(c2cc3c(cc2F)c(=O)c(C(=O)O)cn3C2CC2)CC1)c1nccs1", 0.25],
  ["C=CCO/N=C(\\CN1CCN(c2cc3c(cc2F)c(=O)c(C(=O)O)cn3C2CC2)CC1)c1nccs1", 0.25],
  ["CC(C)(C)O/N=C(\\CN1CCN(c2cc3c(cc2F)c(=O)c(C(=O)O)cn3C2CC2)CC1)c1nccs1", 0.25],
  ["CCO/N=C(\\CN1CCN(c2c(F)cc3c(=O)c(C(=O)O)cn(C4CC4)c3c2Cl)CC1)c1nccs1", 0.25],
  ["CCn1cc(C(=O)O)c(=O)c2cc(F)c(N3CCN(C/C(=N\\OC)c4nccs4)CC3)cc21", 0.25]
]}

Please find the next compound below.
Inquiry: Give recorded MIC with Pseudomonas aeruginosa for the following compound: `C=CCO/N=C(\CN1CCN(c2c(F)cc3c(=O)c(C(=O)O)cn(C4CC4)c3c2Cl)CC1)c1nccs1`
Reply text: 0.25

* * *

system: Staphylococcus aureus; assay: Potency index, ratio of norfloxacin MIC to test compound MIC for antibacterial activity against methicillin-resistant Staphylococcus aureus assessed as reduction in microbial growth by two fold microdilution method; format: functional
Metric Name: Ratio
One number for each entry.

{"columns": ["Chem Smiles", "Ratio"],
 "data": [
  ["CCn1cc(C(=O)O)c(=O)c2cc(F)c(N3CCN(C/C(=N\\OCC(=O)OC)c4nccs4)CC3)cc21", 64]
]}

State the recorded Ratio for every item in the following list.
1. CCn1cc(C(=O)O)c(=O)c2cc(F)c(N3CCN(CC(=O)c4nccs4)CC3)cc21
2. CCO/N=C(\CN1CCN(c2cc3c(cc2F)c(=O)c(C(=O)O)cn3CC)CC1)c1nccs1

Reply text:
4
64

* * *

Could you please report measured MIC for the items listed next?
system: Staphylococcus aureus; assay: Antibacterial activity against Staphylococcus aureus ATCC 25923 assessed as reduction in microbial growth by two fold microdilution method; format: functional

{"columns": ["Chem Smiles", "MIC"],
 "data": [
  ["CCO/N=C(\\CN1CCN(c2c(F)cc3c(=O)c(C(=O)O)cn(C4CC4)c3c2Cl)CC1)c1nccs1", "0.5 µg/mL"],
  ["C=CCO/N=C(\\CN1CCN(c2cc3c(cc2F)c(=O)c(C(=O)O)cn3CC)CC1)c1nccs1", "0.5 µg/mL"],
  ["CCn1cc(C(=O)O)c(=O)c2cc(F)c(N3CCN(C/C(=N\\OCC(=O)OC)c4nccs4)CC3)cc21", "0.25 µg/mL"],
  ["C=CCO/N=C(\\CN1CCN(c2c(F)cc3c(=O)c(C(=O)O)cn(C4CC4)c3c2Cl)CC1)c1nccs1", "0.25 µg/mL"],
  ["CCn1cc(C(=O)O)c(=O)c2cc(F)c(N3CCN(C/C(=N\\OC(C)(C)C)c4nccs4)CC3)cc21", "1 µg/mL"],
  ["CO/N=C(\\CN1CCN(c2c(F)cc3c(=O)c(C(=O)O)cn(C4CC4)c3c2Cl)CC1)c1nccs1", "0.5 µg/mL"]
]}

Below: the item to evaluate.
Inquiry: Query: MIC; subject: `CO/N=C(\CN1CCN(c2cc3c(cc2F)c(=O)c(C(=O)O)cn3C2CC2)CC1)c1nccs1`
Reply text: 0.25 µg/mL

* * *

Kindly supply the reported MIC values for the records listed here.
tested on: Staphylococcus aureus; experiment: Antibacterial activity against Staphylococcus aureus assessed as reduction in microbial growth by two fold microdilution method; assay type: functional
Answers are plain numbers, in mg/L.

Below are worked cases with known answers.
{"columns": ["Chem Smiles", "MIC / mg/L"],
 "data": [
  ["CCO/N=C(\\CN1CCN(c2cc3c(cc2F)c(=O)c(C(=O)O)cn3C2CC2)CC1)c1nccs1", 0.25],
  ["CCO/N=C(\\CN1CCN(c2c(F)cc3c(=O)c(C(=O)O)cn(C4CC4)c3c2Cl)CC1)c1nccs1", 0.25],
  ["O=C(O)c1cn(C2CC2)c2c(Cl)c(N3CCN(C/C(=N\\OCc4ccccc4)c4nccs4)CC3)c(F)cc2c1=O", 2]
]}

For every item in the list below, what is its measured MIC?
1. COC(=O)CO/N=C(\CN1CCN(c2c(F)cc3c(=O)c(C(=O)O)cn(C4CC4)c3c2Cl)CC1)c1nccs1
2. CCn1cc(C(=O)O)c(=O)c2cc(F)c(N3CCN(C/C(=N\OCc4ccccc4)c4nccs4)CC3)cc21

Reply text:
[0.25, 4]
